# measurement description: Capivasertib exposure metrics at steady state projected with PopPK model, patients with solid tumors
# Format: in vivo
# condition label: human, plasma, oral, 320 mg, Study 1, Continuous BID, 320 mg, PWD 4480 mg, N=12, median (range), read-out: AUCPWD
measured quantity: AUC (ng·h/mL)

                                   compound  reported_value
0  NC1(C(=O)N[C@@H](CCO)c2ccc(Cl)cc2)CCN(c2ncnc3[nH]ccc23)CC1           82000

----------
# measurement description: Capivasertib exposure metrics at steady state projected with PopPK model, patients with solid tumors
# Format: in vivo
# condition label: human, plasma, oral, 600 mg, Study 1, Continuous BID, 600 mg, PWD 8400 mg, N=2, median (range), read-out: Cmin
measured quantity: concentration at 12 h (ng/mL)

>>> df
                                   compound      measured_quantity  measurement_unit  reported_value
0  NC1(C(=O)N[C@@H](CCO)c2ccc(Cl)cc2)CCN(c2ncnc3[nH]ccc23)CC1  concentration at 12 h             ng/mL             460
